- system: T1, human PD-L1-Fc mutant E58A (human)
- T1 construct: Position 58 counts on native human PD-L1 (NP_054862.1); also called E58A mutant
- T1 sequence (chain, as listed by the source E58A E58A limits assumed): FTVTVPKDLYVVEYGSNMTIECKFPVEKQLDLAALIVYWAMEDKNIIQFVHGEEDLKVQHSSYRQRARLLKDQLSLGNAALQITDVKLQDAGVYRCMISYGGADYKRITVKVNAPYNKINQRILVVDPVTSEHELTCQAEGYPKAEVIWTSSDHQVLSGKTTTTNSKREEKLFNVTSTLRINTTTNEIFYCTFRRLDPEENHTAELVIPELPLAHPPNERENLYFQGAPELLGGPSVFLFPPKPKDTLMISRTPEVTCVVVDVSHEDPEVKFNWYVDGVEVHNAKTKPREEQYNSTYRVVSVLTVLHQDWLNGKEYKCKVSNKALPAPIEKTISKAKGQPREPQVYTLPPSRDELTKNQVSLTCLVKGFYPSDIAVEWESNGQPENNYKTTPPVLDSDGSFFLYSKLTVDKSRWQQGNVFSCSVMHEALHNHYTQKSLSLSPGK
- assay_text: ELISA on captured PD-L1-Fc, as in Example 18A; note: test concentration or dose not given here
Listing: Mean OD450 of selected binders

# binder, Mean OD450 (OD450)
data = [
    ("23F11-H4L4 (antibody, V domains shown, Human IgG1 constant region with N297A; biotinylated in the alanine-scan ELISA; also called 23F11-H4L4-bio; humanized 23F11) VH: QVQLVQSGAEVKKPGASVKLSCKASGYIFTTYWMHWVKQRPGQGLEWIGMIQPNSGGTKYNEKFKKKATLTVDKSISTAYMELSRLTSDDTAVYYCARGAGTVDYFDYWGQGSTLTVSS VL: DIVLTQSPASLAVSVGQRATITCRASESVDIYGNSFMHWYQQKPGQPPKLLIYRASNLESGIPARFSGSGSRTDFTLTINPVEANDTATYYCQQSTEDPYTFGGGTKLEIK", 0.116),
    ("23A11-H3L5 (antibody, V domains shown, Human IgG1 constant region with N297A; biotinylated in the alanine-scan ELISA; also called 23A11-H3L5-bio; humanized 23A11) VH: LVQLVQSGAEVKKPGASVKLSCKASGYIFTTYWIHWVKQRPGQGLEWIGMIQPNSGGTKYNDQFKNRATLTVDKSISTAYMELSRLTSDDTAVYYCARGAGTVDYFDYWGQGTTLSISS VL: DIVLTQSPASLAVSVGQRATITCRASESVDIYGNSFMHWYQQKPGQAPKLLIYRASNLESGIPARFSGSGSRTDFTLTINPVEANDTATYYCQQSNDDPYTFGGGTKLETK", 0.111),
    ("22C9 (antibody, V domains shown, Mouse monoclonal from hybridoma; also called mouse monoclonal antibody 22C9) VH: QVQLQQSGAELVKPGASVKLSCKASGYTFTSYWMHWVWQRPGQGLEWIGMIHPNSDITNCNENFKHTVTLTVDKSSSTAYMQLSSLTSEDSAVFYCARSDGSSYWYFDVWGTGTTVTVSS VL: SIVMTQTPKFLSVSAGDRVTITCKAGQSVNNDVAWYQQKPGQSPKLLIYYASNRYTGVPDRFTGSGYGTDFTFTISTVQAEDLAVYFCQQDFSSPLTFGAGTKLELK", 0.33),
    ("18G4 (antibody, V domains shown, Mouse monoclonal from hybridoma; also called mouse monoclonal antibody 18G4) VH: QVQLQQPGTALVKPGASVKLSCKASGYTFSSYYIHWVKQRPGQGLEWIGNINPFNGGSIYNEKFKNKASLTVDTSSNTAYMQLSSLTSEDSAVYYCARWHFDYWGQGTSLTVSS VL: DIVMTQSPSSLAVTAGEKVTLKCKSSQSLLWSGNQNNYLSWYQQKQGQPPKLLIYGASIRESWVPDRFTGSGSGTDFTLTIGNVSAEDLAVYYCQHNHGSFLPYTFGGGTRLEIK", 1.7),
    ("4B6 (antibody, V domains shown, Mouse monoclonal purified from hybridoma; also called mouse monoclonal antibody 4B6) VH: EVQLQQSGPELVKPGASVKISCKASGYVFTDYYMNWVKQSHGKSLEWIGDINPNNGGTSYNHKFKGKATVTVDKSSRTAYMELLSLTSEDSAVYYCVKWGDGPFAYWGQGTLVTVSA VL: DIVMTQSQKFMSTSVGDRVSITCKASQNVGAAVAWYQQKPGQSPKLLIYSASNRYTGVPDRFTGSGSGTDFTLTISNMQSEDLADYFCQQYSNYPTFGSGTKLGIK", 1.04),
    ("23F11 (antibody, V domains shown, also called mouse monoclonal antibody 23F11; clone 23F11) VH: QVQLQQPGAELVKPGASVKLSCKASGYSFTTYWMHWVKQRPGQGLEWIGMIQPNSGGTKYNEKFKKKATLTVDKSSTTASMELSSLTSEDSAVYYCARGAGTVDYFDYWGQGSTLTVSS VL: DIVLTHSPVSLAVSLGQRATISCRASESVDIYGNSFMHWYQQKPGQPPKLLIYRASNLESGIPARFSGSGSRTDFTLTINPVEADDVATYYCQQSTEDPYTFGGGTKLEIK", 0.338),
    ("26F5 (antibody, V domains shown, Mouse monoclonal from hybridoma; also called mouse monoclonal antibody 26F5) VH: QVQLQQPGAELVKPGASVKLSCKASGYTFPSYWMHWMKQRPGQGLEWIGMIQPSTSGTIYNERFKNQVTLTVDKSSSTAYMQLSSQTSEDSAVYYCARGTGTVDYFDYWGQGTTLTVSS VL: DIVLTQSPASLAVSLGQRATISCRASESVDSYGNSFIHWYQQKPGQPPKLLIHRASNLESGIPATFSGSGSRTDFTLTINPVEADDVATYYCQQSKEDPYTFGGGTKLEIK", 0.93),
]
